// data source = PubChem BioAssay AID652054

Overview of recorded max response, negative = inhibition for various compounds
# target of assay: D(3) dopamine receptor (Homo sapiens) (UniProt P35462)
# Sequence (P35462 whole entry, looked up): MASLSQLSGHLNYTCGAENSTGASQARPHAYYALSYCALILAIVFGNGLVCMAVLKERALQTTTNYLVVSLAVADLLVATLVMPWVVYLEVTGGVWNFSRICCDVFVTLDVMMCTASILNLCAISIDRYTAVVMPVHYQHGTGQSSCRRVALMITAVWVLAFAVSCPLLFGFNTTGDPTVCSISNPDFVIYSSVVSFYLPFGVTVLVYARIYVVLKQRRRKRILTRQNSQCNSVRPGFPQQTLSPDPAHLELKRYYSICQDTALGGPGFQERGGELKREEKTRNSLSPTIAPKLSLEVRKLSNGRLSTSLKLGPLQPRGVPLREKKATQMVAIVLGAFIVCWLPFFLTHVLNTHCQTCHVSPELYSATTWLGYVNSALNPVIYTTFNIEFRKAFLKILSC
# assay protocol: qHTS of D3 Dopamine Receptor Antagonist: qHTS; also: % is scaled to controls: 0 for no effect and ±100 for the full control effect
# condition info: D3R cells, DiscoveRx beta-arrestin luminescence, antagonist mode; hits give low values
Hit rate of the full screen: of about 360,000 compounds, about 9,100 (2.5%) were called active. Not shown: some 4% with an inconclusive outcome. This is one part of a sample in which actives are shown more often than they occur.
Respond with the bare value in %.

Known results for compounds:
Clc1ccc(-c2cccc3nccn23)cc1
0
CCOC(=O)c1c(NC(=O)COC(=O)c2ccc(S(=O)(=O)C(F)F)cc2)sc(C(=O)N(C)C)c1C
13
CC(C)NS(=O)(=O)c1ccc(NC(=O)c2cccnc2)cc1
0
Cc1ccccc1S(=O)(=O)NC(=O)C1(C)CCN1C(=O)C1(c2ccccc2)CCCC1 (centres undefined)
15.6
COc1ccc(NC(=O)CCCOc2ccc(C(C)=O)cc2)cc1S(=O)(=O)N1CCCCC1
-5.42

Data point: O=C(CSC1=Nc2ccccc2C2=NC(c3ccccc3)C(=O)N12)NCC1CCCO1 (centres undefined) ; max response, negative = inhibition = -66.9

max response, negative = inhibition recorded for this compound, CC(CC(=O)O)C(=O)c1ccc(Cl)c([N+](=O)[O-])c1 (centres undefined) , is 7.05

The measured max response, negative = inhibition associated with CCCS(=O)(=O)NC(=O)C1(C)CCCN(C(=O)c2cc(C)on2)C1 (centres undefined) reads 2.9

# max response, negative = inhibition (compound: CC1CSc2nnc(CCc3ccccc3)n21 (centres undefined) ) is -21.1

Per the records, this compound ( CC(C)(C)C1CCC(=O)N2CCC[C@]2(c2ccccc2)C1 (some centres undefined) ) has max response, negative = inhibition equal to 0

----------
# target of assay: D(3) dopamine receptor (Homo sapiens)
# assay protocol: qHTS of D3 Dopamine Receptor Antagonist: qHTS; also: % is scaled to controls: 0 for no effect and ±100 for the full control effect
# condition info: D3R cells, DiscoveRx beta-arrestin luminescence, antagonist mode
Screen size: about 360,000 compounds; about 9,100 (2.5%) were called active. Another 4% or so got no clear call; they are omitted. Cut-off read from the data, not from the text of the source: active = max response below about -50%; inconclusive = no clear call, values can overlap the other calls; inactive = above that. For the sample, actives were picked, then their nearest neighbours and some compounds at random.
Pick one: class 1 for active, class 0 for inactive

O=C(NCc1cccnc1)c1cc(C2CCCCN2C(=O)CCc2ccccc2)on1 (stereo not given)
class 0
CCOC(=O)C=Cc1ccc(C(=O)OCC)[nH]1
class 0
CCCNC(=O)C[C@@H]1CC[C@@H]2[C@H](COC[C@H](O)CN2C(=O)c2cc(Cl)cc(Cl)c2)O1
class 0
NC(=O)C1(Nc2ccccc2Cl)CCCC1
class 0
CCCc1nc2ccccc2n1C(C)C(=O)NC(C)(C)C (stereo not given)
class 0

Query: Hi team, can someone confirm the assay call for Cc1ccc(S(=O)(=O)N(CCc2ccccc2)c2ccc3c(c2)C2CC3CCN2C(=O)OCc2ccccc2)cc1 (stereo not given) ?
Response: class 0

Query: Please let me know the test result on file for `O=[N+]([O-])c1ccc(C(S(=O)(=O)Cc2ccccc2)S(=O)(=O)Cc2ccccc2)cc1` .
Response: class 0

Query: For this molecule, state the assay outcome: `COc1ccccc1NC(=O)[C@H](COCc1ccccc1)NC(=O)OC(C)(C)C`
Response: class 0

Query: Answer briefly: the call reported for `COc1ccc(Sc2ccc(NC(=O)c3cccc(Cl)c3)cc2C#N)cc1` in this assay.
Response: class 0

Query: Which outcome was entered for the molecule `N#Cc1ccc(-c2ccc3nccn3c2)cc1` in this test?
Response: class 0

----------
Some molecules, each annotated with its measured max response, negative = inhibition.
# target of assay: D(3) dopamine receptor (Homo sapiens)
# assay protocol: qHTS of D3 Dopamine Receptor Antagonist: qHTS; also: % is scaled to controls: 0 for no effect and ±100 for the full control effect
# condition info: D3R cells, DiscoveRx beta-arrestin luminescence, antagonist mode; hits give low values
Screen size: about 360,000 compounds; about 9,100 (2.5%) were called active. About 4% were inconclusive and are not listed. This is one part of a sample in which actives are shown more often than they occur.
Numeric only. Scale: %

Look over these answered cases.
COC(=O)C[C@H]1C[C@@H]2c3cc(NC(=O)Nc4ccccc4)ccc3O[C@@H]2[C@@H](CO)O1
17.9
Cc1ccc(S(=O)(=O)N[C@H]2CCC[C@@H]2O)cc1
-12.4
CCOc1ccc(CNC(=O)CCC(=O)N2CCSc3ccccc32)cc1
10.8

The value of max response, negative = inhibition recorded for `COc1ccc(-c2ccc3[nH]c4c(c3c2)CCN2C[C@H]3[C@H](C)ON(C)[C@H]3C[C@@H]42)cc1` when tested on D(3) dopamine receptor (Homo sapiens) reads -2.08

# lookup: Cc1cc(C(=O)NC2CC(C)(C)Cc3c2cnn3-c2ccccc2)n[nH]1 (stereo unspecified) on D(3) dopamine receptor (Homo sapiens), max response, negative = inhibition = -0.849

Assay D(3) dopamine receptor (Homo sapiens), sample `CCOc1ccc(CCN2C(=O)C(=O)N([C@@H](Cc3ccc(O)cc3)CN3CCC[C@H]3CN3C(=O)C(=O)NC[C@@H]3CC(C)C)C[C@@H]2Cc2ccccc2)cc1` , max response, negative = inhibition read: -23.4

Item CCC(=O)N1CCCC1(C)C(=O)Nc1ccc2c(c1)CCN2C(C)=O (stereo unspecified) was tested on D(3) dopamine receptor (Homo sapiens); the reported max response, negative = inhibition is 19.1

Note to self: max response, negative = inhibition of `CC(C)C[C@H]1CNC(=O)C(=O)N1C[C@@H]1CCCN1C[C@H](Cc1ccccc1)N1C[C@H](CC(C)C)N(CC2CCCCCC2)C(=O)C1=O` with D(3) dopamine receptor (Homo sapiens) was -0.867

The molecule COc1ccc(C(CNC(=O)COc2ccc([N+](=O)[O-])cc2)N2CCCCC2)cc1 (stereo unspecified) , tested on D(3) dopamine receptor (Homo sapiens), showed max response, negative = inhibition of -74.5

----------
Listing of recorded max response, negative = inhibition by entry.
# target of assay: D(3) dopamine receptor (Homo sapiens) (UniProt P35462)
# assay protocol: qHTS of D3 Dopamine Receptor Antagonist: qHTS; also: % is scaled to controls: 0 for no effect and ±100 for the full control effect
# condition info: D3R cells, DiscoveRx beta-arrestin luminescence, antagonist mode; hits give low values
Out of some 360,000 compounds screened, about 9,100 (2.5%) were called active. Inconclusive results (about 4%) are left out. This excerpt belongs to a sample that is enriched for actives.
Use % as the unit, but write only the number.

Worked examples follow.
CC(=O)c1cccc(-c2cnc3c(NC=O)cc(-c4ccc(N(C)C)cc4)cn23)c1
4.39
Cc1cccc(C)c1NC(=O)c1ccc(CN2CCc3ccccc3C2)cc1
-84.7
CN(C)C(=O)c1cccc(-c2cnc3c(NC=O)cc(-c4ccc(F)cc4)cn23)c1
95.3

Kindly note the recorded max response, negative = inhibition for CCCCN(C(C)=O)c1ccc2c(c1)C1CC2CCN1Cc1ccccc1 (stereo not given) , which is -22

What the record says about `COc1ccc(NC(=S)N2CCC(NC(=O)c3cccc(F)c3)CC2)cc1` : max response, negative = inhibition is -3.67

max response, negative = inhibition measured on `O=C(Nc1ccc(CSc2ccccc2)cc1)c1ccc(CN2CCOCC2)cc1` = 2.28

----------
# target of assay: D(3) dopamine receptor (Homo sapiens)
# assay protocol: qHTS of D3 Dopamine Receptor Antagonist: qHTS; also: % is scaled to controls: 0 for no effect and ±100 for the full control effect
# condition info: D3R cells, DiscoveRx beta-arrestin luminescence, antagonist mode
Out of some 360,000 compounds screened, about 9,100 (2.5%) were called active. Inconclusive results (about 4%) are left out. No stated cut-off is given here; in the data, active means max response below about -50%; inconclusive means no clear call, values can overlap the other calls; inactive means above that. Only a selection was taken, and actives are over-represented in it overall.
Bench note: report the call from yes = active, no = inactive

// below: answered molecules
CCNC(=O)c1cc2c(c(-c3cccc(-c4cncnc4)c3)n1)[C@H](CCO)N(C(C)=O)C2
yes
NC(=O)NC(CC(=O)NNC(=O)c1ccccn1)c1ccc(Cl)cc1 (configuration not stated)
no
COc1ccc(OC)c(C(c2nnnn2C(C)(C)C)N2CCc3ccccc3C2)c1 (configuration not stated)
no
CCC(C)(C)n1nnnc1C(c1cccs1)N1CCN(c2nc3ccccc3s2)CC1 (configuration not stated)
no
COc1ccc(OC)c(NC(=O)C2CCCN2S(=O)(=O)c2ccc3c(c2)CC(C)N3C(C)=O)c1 (configuration not stated)
no
CCOc1ccccc1OCCCNCc1ccccc1
yes
COC(=O)CN1C(=O)C(O)=C(C(C)=O)C1c1ccc([N+](=O)[O-])cc1 (configuration not stated)
no
O=[N+]([O-])c1ccc(CN2CC(N3CCC(c4ccccc4)CC3)CS2(=O)=O)cc1 (configuration not stated)
no

Query: Assay result, entry `C/C(=N\NC(=O)Cc1ccc(Cl)cc1)c1ccccn1` — outcome?
Response: yes

Query: What did the test return for COc1ccc(C(C(=O)NCc2ccccc2)n2c(=O)c(-c3ccccc3)nc3ccccc32)cc1 (configuration not stated) ?
Response: no

Query: Short answer needed: outcome of this test for `C[C@@H]1CN([C@@H](C)CO)C(=O)CCCn2nncc2CO[C@H]1CN(C)Cc1ccc(C(F)(F)F)cc1` ?
Response: no

Query: Fill in: this test's call for COC(=O)CN1C(C)=Nc2ccc(Br)cc2C1c1ccccc1 (configuration not stated) is ___
Response: yes
